Test system: Plasmodium falciparum
Assay: GSK_TCMDC: Inhibition of Plasmodium falciparum 3D7 in whole red blood cells, using parasite LDH activity as an index of growth. Test compounds present at 2uM
Assay type: functional

compound: COc1cc(Nc2nccc(N3CCC(NC(=O)C(C)c4ccc(Cl)cc4)C3)n2)cc(OC)c1OC (stereo not drawn)
Inhibition / %: 97

compound: Cc1nc(Nc2ccc(F)cc2)nc(N2CCc3cc(O)ccc3C2C)c1C.Cl (stereo not drawn)
Inhibition / %: 99

compound: O=C(O)C(F)(F)F.O=[N+]([O-])c1ccc(Oc2ccccc2CNCC2CCN(CC3CCCCC3)CC2)cc1
Inhibition / %: 89

compound: Cc1ccc(NC(=O)NC2CCN(c3ccnc4cc(Cl)ccc34)CC2)cc1.O=C(O)C(F)(F)F
Inhibition / %: 100

compound: CN(CCN(C)CC(O)c1ccc(Cl)c(Cl)c1)CC(O)c1ccc(Cl)c(Cl)c1.Cl (stereo not drawn)
Inhibition / %: 91

compound: O=C(c1cccc(-c2noc(C(F)(F)F)n2)c1)N1CCN(c2nsc3ccccc23)CC1
Inhibition / %: 90

compound: NC(=O)c1ccccc1OCC(=O)Nc1cccc(-c2ccc(-c3nc4cc(C(F)(F)F)ccc4[nH]3)cc2)c1
Inhibition / %: 92

compound: COCCn1c(-c2nc(-c3ccc(F)cc3)cnc2N)nc2ccccc21
Inhibition / %: 98

compound: Cc1cccc2nc(-c3ccc(-c4ccc(CNCCNC(=O)c5ccnn5C)cc4)cc3)[nH]c12.O=C(O)C(F)(F)F
Inhibition / %: 100

compound: CN(C(=O)/C=C/c1cc(C(F)(F)F)ccc1F)C1CCN(CCCCCNC(=O)/C=C/c2ccc(Cl)c(Cl)c2)C1 (stereo not drawn)
Inhibition / %: 93

compound: CC(C)c1sc(N2CCN(C)CC2)nc1C(=O)Nc1cccc2c1CCCC2.O=C(O)C(F)(F)F
Inhibition / %: 98

compound: CN1CCN(CC2(Nc3nccc(NCc4ccc(Cl)cc4Cl)n3)CCCCC2)CC1
Inhibition / %: 98

compound: COc1ccc(CCNC(=O)c2cnc3c(c2)nc(-c2c[nH]c(-c4ccccc4)n2)n3CCc2c[nH]cn2)cc1
Inhibition / %: 96

compound: CC(C)(C)c1ccc(Cc2cccc3nc(N)nc(N)c23)cc1
Inhibition / %: 100

compound: O=C(Nc1ccc(OC2CCN(Cc3ccco3)CC2)c(Cl)c1)c1ccc2ncccc2c1.O=C(O)C(F)(F)F
Inhibition / %: 97

compound: CCS(=O)(=O)Nc1ccc2[nH]cc(C3CCN(CCC4CCN(C(=O)/C=C/c5ccc(Cl)c(Cl)c5)CC4)CC3)c2c1
Inhibition / %: 99

compound: COc1ccc2ncc(C)c(CCN3CCC(NCc4ccc5c(n4)NC(=O)CS5)CC3)c2c1.Cl
Inhibition / %: 100

compound: CCCCCCCCCCS(=O)(=O)N[C@H](COCc1cccc(Oc2ccccc2)c1)COP(=O)([O-])OC.[Li+]
Inhibition / %: 87

* * *

Tested on: HepG2
Assay: GSK_TCMDC: Percent inhibition of human HepG2 cell line. Test compounds present at 10uM.
Assay type: functional

compound-structure: CC(=O)Nc1ccc(CN2CCC(NC(=O)c3ccc(-c4cccc(C(F)(F)F)c4)s3)CC2)cc1.O=C(O)C(F)(F)F
study-target: HepG2
Inhibition (%): 35
//
compound-structure: Cc1cccc2nc(-c3cccc(-c4cccc(NC(=O)c5csnn5)c4)c3)[nH]c12
study-target: HepG2
Inhibition (%): 10
//
compound-structure: Cc1ccc(-c2nc3cc(NC(=O)c4ccc([N+](=O)[O-])o4)ccc3o2)cc1Cl
study-target: HepG2
Inhibition (%): 24
//
compound-structure: CC(C)c1ccc(NC(=O)c2ccc(CN3CCCN(CC4CCCCC4)CC3)cc2)cc1.O=C(O)C(F)(F)F
study-target: HepG2
Inhibition (%): 50

Data origin, for the record: ChEMBL document CHEMBL1157539
